- System: MS2 coat protein
- assay.summary: apparent KD of MS2 coat protein; designed switch direction (-1 OFF switch, 1 ON switch): -1; higher = weaker reporter binding
- recorded.conditions: input ligand: none
outcome.measure: apparent KD of MS2 coat protein (nM)
Answers are plain numbers, in nM.

>>> observed_result("AGUACUAUCACGAAAGUGAUAGUACAAAUAGCAAGUGAAACAUGAGGAUCACCCAUGUCCUCAUUUGCUCGUCUUAU [Mat - Sensor v2 -ver2- JL mod - D65] (Eterna round: R96, puzzle: Sensor v2, turn-off variant 2)")
14.3
>>> observed_result("CUGGCUUAGAGAGGAUAUGACAUUCAAGCCUACCCUGGCCACGGGCCACAUGAGGAUCACCCAUGUCAGAAGGCUCAGGCCAGA [Enorri] (Eterna round: R96, puzzle: Exclusion NG 2)")
32.8
>>> observed_result("AACCGCAUAGGAUAUCGAGCAGAGGACUUGAGGAUCACCCAAGUCCUUGAGUUCUUUGUCCGAGAAGGAUGAACAU [Ususrace] (Eterna round: R97, puzzle: Exclusion 5)")
14.6
>>> observed_result("AGAUGUUAAGAGGAUAUCAGCCAAAACCGGCAGUGAGAAGGCUUGACAUGAGGAUCACCCAUGUUUUGCGGUAA [Islalaus] (Eterna round: R97, puzzle: Exclusion 6)")
38.6

Task: Read off the recorded apparent KD of MS2 coat protein for ACACAGCAAGGAUAUACAUGAGGAUCACCCAUGUGGCGGCCGUUACGGUAGGACUAGUGUAGAAGGUGCAUUGG [EX3 #33] (Eterna round: R97, puzzle: Exclusion 3)
Result: 210
